Recorded values, source paper PMC4450870.

Target: KCNQ2 (Rattus norvegicus)
Experiment: whole-cell voltage clamp, CHO cells
Readout name: pEC50
In plain terms, pEC50 is the concentration in mol/L turned into minus its base-10 logarithm.

// pEC50 value for CCc1oc2ccccc2c1C(=O)c1cc(Br)c(O)c(Br)c1 : 5.36

====

Target: KCNQ2 (Rattus norvegicus, UniProt O88943, R198A)
Sequence (O88943 whole entry R198A): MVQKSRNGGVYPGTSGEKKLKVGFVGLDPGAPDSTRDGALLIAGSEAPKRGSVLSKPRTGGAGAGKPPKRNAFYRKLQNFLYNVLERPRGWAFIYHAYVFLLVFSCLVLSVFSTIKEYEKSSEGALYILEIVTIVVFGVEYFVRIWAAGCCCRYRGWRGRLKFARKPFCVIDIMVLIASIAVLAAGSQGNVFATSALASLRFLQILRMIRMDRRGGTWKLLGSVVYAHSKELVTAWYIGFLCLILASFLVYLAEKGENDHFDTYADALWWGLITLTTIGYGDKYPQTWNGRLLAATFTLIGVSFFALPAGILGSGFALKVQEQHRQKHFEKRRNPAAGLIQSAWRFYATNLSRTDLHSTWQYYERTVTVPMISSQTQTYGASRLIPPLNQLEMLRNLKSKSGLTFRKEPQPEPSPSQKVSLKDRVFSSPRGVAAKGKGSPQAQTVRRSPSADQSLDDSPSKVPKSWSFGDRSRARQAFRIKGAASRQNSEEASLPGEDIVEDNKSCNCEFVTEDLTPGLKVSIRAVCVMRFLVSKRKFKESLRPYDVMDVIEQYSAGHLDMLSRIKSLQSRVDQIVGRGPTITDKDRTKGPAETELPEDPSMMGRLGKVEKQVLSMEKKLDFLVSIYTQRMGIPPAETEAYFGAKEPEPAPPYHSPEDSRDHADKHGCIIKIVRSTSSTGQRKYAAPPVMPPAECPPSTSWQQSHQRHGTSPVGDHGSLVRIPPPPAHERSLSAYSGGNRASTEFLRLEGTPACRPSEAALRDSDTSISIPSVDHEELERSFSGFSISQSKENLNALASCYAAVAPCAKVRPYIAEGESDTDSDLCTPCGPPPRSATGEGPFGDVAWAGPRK
Test: whole-cell voltage clamp, CHO cells
Readout name: pEC50
In plain terms, pEC50 is the concentration in mol/L turned into minus its base-10 logarithm.

// pEC50 value for CCc1oc2ccccc2c1C(=O)c1cc(Br)c(O)c(Br)c1 : 4.55
